For each record, write down the corresponding damage (phytotoxicity) average rating, Line WT.
Test system: traditional variety (wild-type) sugar beet plants (Line WT)
TEST_DESCRIPTION: Greenhouse trial, damage (phytotoxicity) rating after ALS inhibitor treatment, Line WT
Type: in vivo, Beta vulgaris L. ssp. vulgaris
SETTINGS: day 14 after application at stage BBCH 14; scale 0% no damage to 100% completely killed; g/ha per herbicide
Expressed in %, but write only the number.

Q) damage (phytotoxicity) average rating, Line WT for COc1cc(OC)n2nc(S(=O)(=O)Nc3c(Cl)ccc(C)c3Cl)nc2n1 [Metosulam] ?
A) 79.4

Q) Could you do the same for COc1cc(OC)nc(NC(=O)NS(=O)(=O)N(C)S(C)(=O)=O)n1 [Amidosulfuron] , please?
A) 73.1

Q) Could you do the same for COc1cc(OC)nc(NC(=O)NS(=O)(=O)c2cc(NC=O)ccc2C(=O)N(C)C)n1 [Foramsulfuron] , please?
A) 80.0

Q) Could you do the same for COC(=O)c1csc(C)c1S(=O)(=O)NC(=O)n1nc(OC)n(C)c1=O [Thiencarbazone-methyl] , please?
A) 84.4

Q) Could you do the same for COc1cc(OC)nc(Oc2cccc(Oc3nc(OC)cc(OC)n3)c2C(=O)[O-])n1.[Na+] [Bisbyribac-Na] , please?
A) 80.0
